Source of measurements: the supplement of paper PMC10057847

B1: library; the commonest letter at each place (parent)
chain: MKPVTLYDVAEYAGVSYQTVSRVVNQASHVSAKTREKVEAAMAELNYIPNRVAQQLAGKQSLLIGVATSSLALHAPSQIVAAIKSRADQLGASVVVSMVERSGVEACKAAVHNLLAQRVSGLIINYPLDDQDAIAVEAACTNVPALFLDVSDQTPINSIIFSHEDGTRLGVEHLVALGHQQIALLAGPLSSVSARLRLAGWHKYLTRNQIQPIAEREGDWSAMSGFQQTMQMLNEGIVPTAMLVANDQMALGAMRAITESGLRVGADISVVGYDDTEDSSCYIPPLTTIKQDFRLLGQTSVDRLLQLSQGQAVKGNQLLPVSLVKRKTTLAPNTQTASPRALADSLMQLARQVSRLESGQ

# Variants of: B1
# settings: with IPTG
Assignment: determine reported EC50 for IPTG (log10 µmol/L) for the given variants.

Output measured EC50 for IPTG (log10 µmol/L) for this item: S70R S190C
1.55

Output measured EC50 for IPTG (log10 µmol/L) for this item: A138T A214V V244L
1.81

Output measured EC50 for IPTG (log10 µmol/L) for this item: Q231R
2.06

Output measured EC50 for IPTG (log10 µmol/L) for this item: S70R V271M
1.52

Output measured EC50 for IPTG (log10 µmol/L) for this item: D88Y A241V N246S L305M L319F P339T A341T L346S
2.73

Output measured EC50 for IPTG (log10 µmol/L) for this item: V95M A337T
2.11

Output measured EC50 for IPTG (log10 µmol/L) for this item: S70R Q231R
1.51

Output measured EC50 for IPTG (log10 µmol/L) for this item: V80L
2.1

Output measured EC50 for IPTG (log10 µmol/L) for this item: F161S
1.12

Output measured EC50 for IPTG (log10 µmol/L) for this item: V80L S279T
1.57

Output measured EC50 for IPTG (log10 µmol/L) for this item: L56M
1.05

Output measured EC50 for IPTG (log10 µmol/L) for this item: V80L V96E T154I S158R V238D M254I V264I
1.68

Output measured EC50 for IPTG (log10 µmol/L) for this item: H74Y A92V H112L S151T D165N H179Q
1.29

Output measured EC50 for IPTG (log10 µmol/L) for this item: E39D N208D A222V
1.37

Output measured EC50 for IPTG (log10 µmol/L) for this item: V15I F161I A266T K290R M347I
2.85

Output measured EC50 for IPTG (log10 µmol/L) for this item: E11K A67P F161S A186V M230L D344N
0.815

Output measured EC50 for IPTG (log10 µmol/L) for this item: S69T I83M S97T
1.96

Output measured EC50 for IPTG (log10 µmol/L) for this item: I83M V136E
1.48

Output measured EC50 for IPTG (log10 µmol/L) for this item: S70R S97T F161V
1.71

Output measured EC50 for IPTG (log10 µmol/L) for this item: V136E F161V
3.71

Output measured EC50 for IPTG (log10 µmol/L) for this item: S70R S97T
1.16

Output measured EC50 for IPTG (log10 µmol/L) for this item: S97T G200C
2.16
